Exercise: for every item that follows, state its recorded Binding selectivity ratio (Bcl-XL Ki/Bcl-2 Ki).
# System: GST-Bcl-2
# ASSAY INFO: TR-FRET binding assay, Bcl-2
# CONDITION LABEL: TR-FRET Ki values
# Experimental: Tb-anti-GST antibody was purchased from Invitrogen (Catalog No. PV4216). […] The samples were then mixed on a shaker for 1 minute and incubated for an additional 3 hours at room temperature. […] Fluorescence was measured on the Envision (Perkin Elmer) using a 340/35 nm excitation filter and 520/525 (F-Bak peptide) and 495/510 nm (Tb-labeled anti-Histidine antibody) emission filters. […]
// print number alone

Please indicate Binding selectivity ratio (Bcl-XL Ki/Bcl-2 Ki) recorded for CC1(C)CCC(CN2CCN(c3ccc(C(=O)NS(=O)(=O)c4ccc(NCCCN5CCCC5)c([N+](=O)[O-])c4)c(Oc4cccc5[nH]ccc45)c3)CC2)=C(c2ccc(C(F)(F)F)cc2)C1
74

Note Binding selectivity ratio (Bcl-XL Ki/Bcl-2 Ki) for the molecule shown: CC1(C)CCC(CN2CCN(c3ccc(C(=O)NS(=O)(=O)c4ccc(NN5CCS(=O)(=O)CC5)c([N+](=O)[O-])c4)c(Oc4ccc5[nH]ccc5c4)c3)CC2)=C(c2ccc(Cl)cc2)C1
3548.2

Return Binding selectivity ratio (Bcl-XL Ki/Bcl-2 Ki) (reported value) for this molecule: CC1(C)CCC(CN2CCN(c3ccc(C(=O)NS(=O)(=O)c4ccc(NCC5COCCO5)c([N+](=O)[O-])c4)c(Oc4ccc5[nH]ccc5c4)c3)CC2)=C(c2ccc(Cl)cc2)C1 (stereo not shown)
2301.3

###

# Tested on: FL5.12/Bcl-2 cells
# ASSAY INFO: FL5.12/Bcl-2 cell viability assay
# Format: cell-based, murine
# CONDITION LABEL: ratio of canine platelet EC50 to FL5.12/Bcl-2 EC50
For each entry below, report its Selectivity Ratio (Platelet EC50/FL5.12/Bcl-2 EC50) value.
The answer should be written as a number, with no unit following it.

For the compound CN1CCC(Nc2ccc(S(=O)(=O)NC(=O)c3ccc(N4CCN(CC5=C(c6ccc(Cl)cc6)CC(C)(C)OC5)CC4)cc3Oc3ccc4[nH]ccc4c3)cc2[N+](=O)[O-])CC1 , give its reported Selectivity Ratio (Platelet EC50/FL5.12/Bcl-2 EC50).
509

Consider the compound CN(C)CCCOc1ccc(S(=O)(=O)NC(=O)c2ccc(N3CCN(CC4=C(c5ccc(Cl)cc5)CC(C)(C)CC4)CC3)cc2Oc2ccc3[nH]ccc3c2)cc1[N+](=O)[O-] and give its recorded Selectivity Ratio (Platelet EC50/FL5.12/Bcl-2 EC50).
2029

# return recorded Selectivity Ratio (Platelet EC50/FL5.12/Bcl-2 EC50) for entry CN(C)CCCNc1ccc(S(=O)(=O)NC(=O)c2ccc(N3CCN(CC4=C(c5ccc(Cl)cc5)CCC(C)(C)C4)CC3)cc2Oc2cccc3[nH]ccc23)cc1[N+](=O)[O-]
554

###

# Tested on: GST-Bcl-2
# ASSAY INFO: TR-FRET binding assay, Bcl-2
# CONDITION LABEL: TR-FRET Ki values
So I've got a bunch of compounds here, and I need their Binding selectivity ratio (Bcl-XL Ki/Bcl-2 Ki) values.
Give a plain numeric answer without units written out.

For GST-Bcl-2, give the measured Binding selectivity ratio (Bcl-XL Ki/Bcl-2 Ki) of the entry CN(C)C1CCC(Nc2ccc(S(=O)(=O)NC(=O)c3ccc(N4CCN(CC5=C(c6ccc(Cl)cc6)CC(C)(C)CC5)CC4)cc3Oc3cccc4[nH]ccc34)cc2[N+](=O)[O-])CC1 (centres unmarked) [EXAMPLE 202]
97.1

Fill in Binding selectivity ratio (Bcl-XL Ki/Bcl-2 Ki) for CN(C)CCOc1ccc(-c2ccc(Cl)cc2)c(CN2CCN(c3ccc(C(=O)NS(=O)(=O)c4ccc(NCCCN5CCCC5)c([N+](=O)[O-])c4)c(Oc4ccc5[nH]ccc5c4)c3)CC2)c1 [Example 135] tested with GST-Bcl-2.
779.9
